Numbers sourced from ChEMBL document CHEMBL6074653.

assay: AUC (0 to infinity) in male Wistar rat at 30 mg/kg, po measured upto 24 hrs; assay type: ADME, organism-based; conditions: in vivo
RECORDED_METRIC: AUC(0-inf)

[
  {
    "SMILES_CODE": "N#C[C@H]1CCCN1C(=O)CN1C(=O)S/C(=C\\c2ccc(F)cc2)C1=O",
    "OBSERVED_VALUE": "6240 ng·h/mL"
  },
  {
    "SMILES_CODE": "N#C[C@H]1CCCN1C(=O)CN1C(=O)S/C(=C\\c2ccc(O)cc2)C1=O",
    "OBSERVED_VALUE": "6620 ng·h/mL"
  }
]
